biological target: Dual specificity protein kinase CLK3 (Homo sapiens) (UniProt P49761)
Sequence (P49761 whole entry, looked up): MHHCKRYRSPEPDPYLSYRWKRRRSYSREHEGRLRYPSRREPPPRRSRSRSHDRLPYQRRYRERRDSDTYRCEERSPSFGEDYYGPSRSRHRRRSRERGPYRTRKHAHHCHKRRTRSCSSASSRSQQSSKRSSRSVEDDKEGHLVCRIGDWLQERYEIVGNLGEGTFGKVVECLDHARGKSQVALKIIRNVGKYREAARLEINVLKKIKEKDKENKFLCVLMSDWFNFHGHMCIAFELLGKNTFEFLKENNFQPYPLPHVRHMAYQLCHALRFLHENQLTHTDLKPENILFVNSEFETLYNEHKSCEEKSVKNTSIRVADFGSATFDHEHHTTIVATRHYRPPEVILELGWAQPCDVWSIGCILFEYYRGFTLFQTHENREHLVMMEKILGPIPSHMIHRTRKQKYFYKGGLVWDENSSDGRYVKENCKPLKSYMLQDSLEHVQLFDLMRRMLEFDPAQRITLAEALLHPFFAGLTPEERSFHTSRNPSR
Label key: Satisfied means ΔTm under 1 °C; Not satisfied means ΔTm of 1 °C or more.

Record excerpt, results attached:
- Nc1ncnc2c1c(I)cn2[C@@H]1O[C@H](CO)[C@@H](O)[C@H]1O: Not satisfied
- C/C(O)=C(\C#N)C(=O)Nc1cc(Br)ccc1Br: Satisfied
- COc1ccc2c(c1)/C(=C/c1cnc[nH]1)C(=O)N2 [SU-9516]: Not satisfied
- CCOc1ccc(/C=C2/SC(=O)N(CCN)C2=O)cc1 [HIAZOLIDINEDIONE1]: Satisfied
- COC(=O)[C@]1(O)C[C@@H]2O[C@@]1(C)n1c3ccccc3c3c4c(c5c6ccccc6n2c5c31)C(=O)NC4 (single isomer, unassigned): Satisfied
- O=c1c2ccccc2[nH]c(=S)n1CCN1CCC(=C(c2ccc(F)cc2)c2ccc(F)cc2)CC1 [DIACYLGLYCEROL KINASE INHIBITOR II]: Satisfied
- Clc1ccc(Nc2nnc(Cc3ccncc3)c3ccccc23)cc1: Not satisfied
- N#CCCc1ccc2c(c1)-c1[nH]c3ccc([N+](=O)[O-])cc3c1CC(=O)N2 [ALSTERPAULLONE 2]: Not satisfied

Task: Input CC[C@H](CO)Nc1nc(NCc2ccccc2)c2ncn(C(C)C)c2n1 [SELICICLIB] ; condition: ΔTm strictly below 1 °C. Does it hold?
Result: Satisfied

Task: Record CC(C)c1cc(/C=C(\C#N)C(=O)NCCCc2ccccc2)cc(C(C)C)c1O : is its ΔTm strictly below 1 °C?
Result: Not satisfied
